biological target: US28 receptor (Human cytomegalovirus); construct: expressed in transfected cells; host or cells: HEK 293T cells, transiently transfected; test: PathDetect trans Elk1 luciferase reporter gene assay in US28-transfected 293T HEK cells; format: cell-based, Human Cytomegalovirus (HCMV); details: maximum intrinsic activity from dose-response curve; negative = inverse agonism
Sequence (P69332 whole entry): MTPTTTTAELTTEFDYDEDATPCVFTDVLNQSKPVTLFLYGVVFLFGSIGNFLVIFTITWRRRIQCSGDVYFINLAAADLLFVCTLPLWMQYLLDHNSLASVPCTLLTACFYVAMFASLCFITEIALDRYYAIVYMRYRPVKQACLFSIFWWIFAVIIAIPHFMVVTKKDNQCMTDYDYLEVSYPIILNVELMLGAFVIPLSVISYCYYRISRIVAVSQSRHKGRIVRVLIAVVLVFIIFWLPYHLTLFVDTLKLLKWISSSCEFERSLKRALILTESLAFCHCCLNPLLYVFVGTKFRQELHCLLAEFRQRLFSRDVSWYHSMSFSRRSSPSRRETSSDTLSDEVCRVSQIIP
property label: Efficacy(%)
Value expressed in %; do not type the unit.

Worked examples follow.
compound	readout unit	measured number
COc1ccc(Br)cc1-c1cc(=O)c2c(OCc3ccccc3)cccc2o1 [Compound 11b]	%	−89
COc1ccccc1/C=C/C(=O)c1ccccc1O	%	67
COc1ccccc1-c1oc2ccccc2c(=O)c1O	%	−19

Please find the next compound below.
Efficacy(%) for COc1ccc(Br)cc1-c1cc(=O)c2ccccc2o1 [Compound 11d] ? −55

---

target: US28 receptor (Human cytomegalovirus); construct: expressed in transfected cells; host or cells: HEK 293T cells, transiently transfected; test: PathDetect trans Elk1 luciferase reporter gene assay in US28-transfected 293T HEK cells; type: cell-based, Human Cytomegalovirus (HCMV); conditions: Elk1 reporter, US28-transfected HEK cells
property label: type of activity on the US28 receptor (agonist / inverse agonist / none), in words

mol	experimental target	result
CCOc1ccc(Cl)cc1-c1oc2ccccc2c(=O)c1O	US28 receptor (Human cytomegalovirus)	inhibited US28 activity
CCOc1ccc(Br)cc1-c1oc2ccccc2c(=O)c1O	US28 receptor (Human cytomegalovirus)	inhibited US28 activity

---

experiment: TZMbI assay for cell safety (cell viability and growth, CytoTox Glo); conditions: human, TZMbI cells, 10 μM, Experiment 1A; read-out: % decrease in viability compared to 0.1% DMSO vehicle based on viable cell luminescence
Recorded cytotoxicity at 10 μM for the following molecules
Just the number please, in %, no unit attached.

molecule	cytotoxicity at 10 μM, %
COc1ccc(I)cc1/C=C/C(=O)c1ccccc1O	99.7

# get_value(readout='cytotoxicity at 10 μM', item= `COc1cc(Br)cc(/C=C/C(=O)c2ccccc2O)c1OC` ) 72.9

---

test: TZMbI assay for cell safety (cell viability and growth, CytoTox Glo); conditions: human, TZMbI cells, 1.25 μM, Experiment 2A; read-out: % decrease in viability compared to 0.1% DMSO vehicle based on viable cell luminescence
property label: cytotoxicity at 1.25 μM (%)
Lab book: enter the figure in %, no units written.

Examples with their reported cytotoxicity at 1.25 μM follow.
molecule	property label	readout unit	measured number
COc1ccc(Br)cc1/C=C/C(=O)c1ccc2ccccc2c1O [Compound 8m]	cytotoxicity at 1.25 μM	%	10.3
COc1ccc(Br)cc1-c1cc(=O)c2c(O)cccc2o1 [Compound 12b]	cytotoxicity at 1.25 μM	%	-8.84
CCOc1ccc(Cl)cc1-c1oc2ccccc2c(=O)c1O [Compound 9i]	cytotoxicity at 1.25 μM	%	10.8
COc1ccc(Cl)cc1-c1oc2ccccc2c(=O)c1O [Compound 9h]	cytotoxicity at 1.25 μM	%	-8.02
COc1ccccc1-c1cc(=O)c2c(O)cccc2o1 [Compound 12a]	cytotoxicity at 1.25 μM	%	6.38

Suppose we examine the molecule COc1ccc(Br)cc1/C=C/C(=O)c1c(O)cccc1OCc1ccccc1 [Compound 8l] ; what cytotoxicity at 1.25 μM value has been reported? -2.83

---

Assay: TZMbI assay for cell safety (cell viability and growth, CytoTox Glo)
Conditions: human, TZMbI cells, 10 μM, Experiment 2A; read-out: % decrease in viability compared to 0.1% DMSO vehicle based on viable cell luminescence
Protocol: Assays were performed below in accordance with the procedures set forth in The Journal of Immunology, 2006, 176, pp. 6900-905; AIDS Research and Human Retroviruses, 2004, 20:11, pp. 1157-1665.^32,33 TZMbI assays for cell safety were performed to identify potential anti-viral compounds. TZMbI assays for cell safety were performed to identify potential anti-viral compounds per the methods.
property label: cytotoxicity at 10 μM (%)
Express it in %; write the number only.

Previously resolved entries follow.
compound	readout unit	measured number
COc1ccc(Br)cc1-c1cc(=O)c2c(OCc3ccccc3)cccc2o1 [Compound 11b]	%	-5.05
COc1ccccc1-c1oc2ccccc2c(=O)c1O [Compound 9a]	%	-24.9
COc1ccc(Br)cc1/C=C/C(=O)c1ccc2ccccc2c1O [Compound 8m]	%	38.2
COc1ccc(Br)cc1/C=C/C(=O)c1c(O)cccc1OCc1ccccc1 [Compound 8l]	%	28.7
CCOc1ccc(Cl)cc1-c1oc2ccccc2c(=O)c1O [Compound 9i]	%	18.7

Below: the item to evaluate.
What measured cytotoxicity at 10 μM goes with COc1cc(Br)cc(-c2oc3ccccc3c(=O)c2O)c1OC [Compound 9d] ? -18.6
